Molecular target: HLA-B*15:01
Assay: IEDB peptide-MHC binding, purified MHC/competitive/radioactivity; filed as Kd, often an IC50 or EC50 that approximates it; bounds were set here for any values at or beyond the usual limits of such assays
Conditions: source organism: Dengue virus 3 China/80-2/1980
Endpoint: pKd
API: returns pKd as number; meaning -log10 of concentration in mol/L.

Recall and state the measured pKd for LMMMLPATL .
7.06

---

Biological target: HLA-B*07:02
Assay: IEDB peptide-MHC binding, purified MHC/direct/fluorescence; filed as Kd, often an IC50 or EC50 that approximates it; bounds were set here for any values at or beyond the usual limits of such assays
Settings: source organism: Coxiella burnetii
pKd: −log10 of the molar value.
Endpoint: pKd

Recall and state the measured pKd for HEGDIVPLF .
≤ 4.70

Recall and state the measured pKd for VPPESVEAA .
4.91

Recall and state the measured pKd for IIGLLKIFR .
≤ 4.70

---

Target: HLA-A*03:01
Assay: IEDB peptide-MHC binding, purified MHC/competitive/radioactivity; filed as Kd, often an IC50 or EC50 that approximates it; bounds were set here for any values at or beyond the usual limits of such assays
Settings: source organism: Vaccinia virus Copenhagen
Endpoint: Kd (µM)
Kindly provide the numeric value in µM only, without the unit symbol.

Recall and state the measured Kd for KSTSPTRTWK .
0.0111

Recall and state the measured Kd for LLNVTYNIK .
7.7

---

Biological target: HLA-A*02:12
Assay: IEDB peptide-MHC binding, purified MHC/direct/fluorescence; filed as Kd, often an IC50 or EC50 that approximates it; bounds were set here for any values at or beyond the usual limits of such assays
Conditions: source organism: Orthohantavirus negraense
pKd: −log10 of the molar value.
Endpoint: pKd

Recall and state the measured pKd for ILYMLSWGK .
≤ 4.70

---

Target: HLA-A*02:03
Assay: IEDB peptide-MHC binding, purified MHC/competitive/fluorescence; filed as Kd, often an IC50 or EC50 that approximates it; bounds were set here for any values at or beyond the usual limits of such assays
Conditions: source organism: Listeria monocytogenes J0161
Endpoint: Kd

Recall and state the measured Kd for YNAKRIETV .
≥ 20 µM

---

Target: HLA-A*11:01
Assay: IEDB peptide-MHC binding, purified MHC/competitive/radioactivity; filed as Kd, often an IC50 or EC50 that approximates it; bounds were set here for any values at or beyond the usual limits of such assays
Conditions: source organism: Vaccinia virus
Endpoint: pKd
API: returns pKd as number; meaning -log10 of concentration in mol/L.

Recall the reported pKd of VTSSGTIYK when tested on HLA-A*11:01.
9.23

---

Molecular target: HLA-B*45:01
Assay: IEDB peptide-MHC binding, purified MHC/competitive/radioactivity; filed as Kd, often an IC50 or EC50 that approximates it; bounds were set here for any values at or beyond the usual limits of such assays
Settings: source organism: Mammarenavirus guanaritoense
pKd: −log10 of the molar value.
Endpoint: pKd

Recall and state the measured pKd for PDFELLLSL .
≤ 4.42

---

Target: HLA-A*32:01
Test: IEDB peptide-MHC binding, purified MHC/competitive/radioactivity; filed as Kd, often an IC50 or EC50 that approximates it; bounds were set here for any values at or beyond the usual limits of such assays
Details: source organism: Dengue virus 1 Brazil/97-11/1997
So I've got a bunch of sequences here, and I need their Kd values.
Dear colleague, please send the value followed by its unit.

Recall and state the measured Kd for FQPHQLWTTL .
761 nM

Recall and state the measured Kd for KSYAQMWQLM .
89.9 nM

Values compiled from the Immune Epitope Database (IEDB).
